Numbers sourced from paper PMC9320910.

- assayed_target: Microtubule affinity regulating kinase 4 (MARK4) (Homo sapiens, UniProt Q96L34)
- Sequence (Q96L34 1-752): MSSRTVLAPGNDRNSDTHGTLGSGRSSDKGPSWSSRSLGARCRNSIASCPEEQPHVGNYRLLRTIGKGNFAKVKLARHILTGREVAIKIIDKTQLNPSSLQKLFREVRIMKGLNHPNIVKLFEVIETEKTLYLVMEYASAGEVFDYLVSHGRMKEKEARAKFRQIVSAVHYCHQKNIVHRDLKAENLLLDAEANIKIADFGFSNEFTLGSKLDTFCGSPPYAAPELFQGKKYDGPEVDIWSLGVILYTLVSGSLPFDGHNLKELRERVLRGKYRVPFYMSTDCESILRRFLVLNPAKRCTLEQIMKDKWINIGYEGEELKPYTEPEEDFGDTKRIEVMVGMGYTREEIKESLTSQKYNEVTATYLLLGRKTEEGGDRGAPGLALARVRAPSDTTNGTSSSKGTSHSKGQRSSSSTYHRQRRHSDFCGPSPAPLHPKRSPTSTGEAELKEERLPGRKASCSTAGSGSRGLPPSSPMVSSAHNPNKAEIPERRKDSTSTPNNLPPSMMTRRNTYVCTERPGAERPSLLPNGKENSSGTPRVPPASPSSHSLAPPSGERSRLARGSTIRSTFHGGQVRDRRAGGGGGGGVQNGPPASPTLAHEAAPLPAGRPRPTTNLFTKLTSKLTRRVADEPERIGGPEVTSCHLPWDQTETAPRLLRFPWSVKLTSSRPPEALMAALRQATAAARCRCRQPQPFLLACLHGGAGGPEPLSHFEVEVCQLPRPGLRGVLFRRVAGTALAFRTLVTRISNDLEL
metric: Kd
Please don't drop the unit; write it after the number.

Q: Entry CN(C)C(=N)N=C(N)N [Mtf, N,N-dimethylbiguanide] , system Microtubule affinity regulating kinase 4 (MARK4) (Homo sapiens, UniProt Q96L34): what Kd was measured?
Ans: 1.67 µM
